Measured values drawn from the supplement of paper PMC9732359 for this set.

Assay: protein stability index of a GFP-peptide fusion (yeast GPS) (PSI 1-4); higher = more stable; sorted into four equal gates, so the index is relative within each strain
Details: doa10∆
protein stability index by entry:

TTEMLDKLMVTSIRSTP [MED6]: 2.27
MGVRTFSQKEMAFNLLG [FAS2]: 2.1
MQEKAAHIAKNLINLSI [YCS4]: 2.15
MQANKLDSQETPSTEES [SWI3]: 1.79

input: Give the reported value of protein stability index for this record: LSFTPTTVIGIRGSDQA [RPN2]
output: 1.65

input: Give the reported value of protein stability index for this record: IIDAKTRNEQTTIQTEK [MCD1]
output: 3.19

input: Give the reported value of protein stability index for this record: DVVEYLDKVINKELPIN [RPN8]
output: 2.82

input: Give the reported value of protein stability index for this record: KVVGPRGTLTKNLKHID [RPL9A]
output: 3.27

input: Give the reported value of protein stability index for this record: FKNTRETAQAINGWELT [RPL17A]
output: 1.35

input: Give the reported value of protein stability index for this record: DVAFADGGKTLRACAAN [YMR129W/POM152]
output: 1.54

###

Test: protein stability index of a GFP-peptide fusion (yeast GPS) (PSI 1-4); higher = more stable; sorted into four equal gates, so the index is relative within each strain
Details: san1∆
protein stability index by entry:
Write the value as a bare number.

input: Give the reported value of protein stability index for this record: PANVLLVQSLNDMVLEL [NNF1]
output: 2.83

input: Give the reported value of protein stability index for this record: QDPKTLVALLSRDLWCF [SSN2]
output: 1.31

###

Experiment: protein stability index of a GFP-peptide fusion (yeast GPS) (PSI 1-4); higher = more stable; sorted into four equal gates, so the index is relative within each strain
Conditions: ubr1∆
parameter_measured: protein stability index
Write the value as a bare number.

GVGKRKVWLDPNETSEI [RPL19A]: 3.04
SVSFKVFLLLQAYFSRL [BRR2]: 1.42
SNDTTAFNDSCVNLSLF [SRB8]: 2.34
RSDREYPLLIRMSYGSH [SRP14]: 2.23
IMSTEAHVNKVTEETTK [SIR4]: 2.85
SLKNTDALLNSTTEHIN [YJL039C/NUP192]: 2.42
GQVSMSQFNGSGNGSNP [PGD1]: 3.2

input: Give the reported value of protein stability index for this record: KDLEIRKLEISSRFKHR [GAL11]
output: 2.81

###

Test: protein stability index of a GFP-peptide fusion (yeast GPS) (PSI 1-4); higher = more stable; sorted into four equal gates, so the index is relative within each strain
Conditions: san1∆
protein stability index by entry:

Recorded results for 10 sequences are shown here.
PDISRAVINIRDDGKRE [RPO31]: 2.74
TSLTSIKWENAFVSVYS [PRP8]: 3
GTLLREDDNTPAGHAGN [YDL088C/ASM4]: 3.09
EGGKNQAELLQLAVKII [YJL039C/NUP192]: 3.3
NFRILKSFTNDKIPLNY [SRB5]: 2.84
ENLADLDYQIGNSESKV [LIN1]: 3.06
GLSKEDDVRDFVIRREV [RPS6A]: 3.13
GNAPATPSSDQNPLPTR [SOH1]: 2.63
FGYDIPLLDIVLKADRS [YML103C/NUP188]: 2.82
DLASSKEVLAKIVDLLA [RPN5]: 2.98

input: Give the reported value of protein stability index for this record: ENLFSKEEVCQGMEGTV [YMR129W/POM152]
output: 2.92

input: Give the reported value of protein stability index for this record: LLKLTKVFIRESLSLKN [YML103C/NUP188]
output: 1.3

input: Give the reported value of protein stability index for this record: INNPVNLTIHFGGEKGK [FAS1]
output: 2.8

input: Give the reported value of protein stability index for this record: ELPLEDFKAKYCDSMGR [RPB5]
output: 3.74
